Target: WEE1 (Homo sapiens, UniProt P30291+Q96SW2)
Construct: C-terminal ePL-tagged (DiscoverX, Fremont, CA) full-length WEE1 expression construct; expressed in transfected cells; host or cells: LentiX-HEK293T (Invitrogen), lentiviral transduction; co-expressing GSPT1-GN (G576N, lacking the first 158 amino acids)
Experiment: WEE1-ePL degradation assay (LentiX-WEE1-ePL-GSPT1-ND cells, InCELL Hunter luminescence, 4 h)
Type: cell-based
Conditions: 293T-LentiX WEE1-ePL cells, lower limit of the fit (0 = luciferase inhibitor, Ymax = DMSO control)
measurement_type: 293T-LentiX WEE1-ePL Degradation 4 hr (Ymin)
Form: value (number only, do not type unit).

[[record]]
molecule = "Cn1ncc2cc(CN3CC[C@H](Oc4ccc5c(c4)CN(C4CCC(=O)NC4=O)C5=O)C3)ccc21 (some centres unmarked)"
measurement_target = "WEE1 (Homo sapiens, UniProt P30291+Q96SW2)"
measured_result = 61

[[record]]
molecule = "O=C1CCC(N2Cc3cc(O[C@H]4CCN(Cc5ccc6nc(N7CC8(CCOCC8)C7)ccc6c5)C4)ccc3C2=O)C(=O)N1 (some centres unmarked)"
measurement_target = "WEE1 (Homo sapiens, UniProt P30291+Q96SW2)"
measured_result = 36

[[record]]
molecule = "O=C1CCC(N2Cc3cc(O[C@H]4CCN(Cc5cnc6c(c5)CCOC6)C4)ccc3C2=O)C(=O)N1 (some centres unmarked)"
measurement_target = "WEE1 (Homo sapiens, UniProt P30291+Q96SW2)"
measured_result = 30

[[record]]
molecule = "O=C1CCC(N2Cc3cc(O[C@H]4CCN(Cc5ccc6nc(C(F)(F)F)ccc6c5)C4)ccc3C2=O)C(=O)N1 (some centres unmarked)"
measurement_target = "WEE1 (Homo sapiens, UniProt P30291+Q96SW2)"
measured_result = 24.72

[[record]]
molecule = "O=C1CC[C@H](N2Cc3cc(O[C@H]4CCN(Cc5ccc6nc(N7CCOCC7)ncc6c5)C4)ccc3C2=O)C(=O)N1"
measurement_target = "WEE1 (Homo sapiens, UniProt P30291+Q96SW2)"
measured_result = 34

[[record]]
molecule = "O=C1CCC(N2Cc3cc(O[C@H]4CCN(Cc5cnc6ncccc6c5)C4)ccc3C2=O)C(=O)N1 (some centres unmarked)"
measurement_target = "WEE1 (Homo sapiens, UniProt P30291+Q96SW2)"
measured_result = 27.365

[[record]]
molecule = "O=C1CCC(N2C(=O)c3ccc(O[C@@H]4CCN(Cc5ccc6ncccc6c5)C4)cc3C2=O)C(=O)N1 (some centres unmarked)"
measurement_target = "WEE1 (Homo sapiens, UniProt P30291+Q96SW2)"
measured_result = 83.71

[[record]]
molecule = "O=C1CCC(N2Cc3cc(O[C@H]4CCN(Cc5cc6ccccc6nc5C(F)(F)F)C4)ccc3C2=O)C(=O)N1 (some centres unmarked)"
measurement_target = "WEE1 (Homo sapiens, UniProt P30291+Q96SW2)"
measured_result = 39.87


Alright, here's another molecule for you.
Field request: 293T-LentiX WEE1-ePL Degradation 4 hr (Ymin) | item: O=C1CCC(N2Cc3cc(O[C@H]4CCN(Cc5cc6cc(C7CCOCC7)ccc6cn5)C4)ccc3C2=O)C(=O)N1 (some centres unmarked) 33.5

###

Target: WEE1 (Homo sapiens, UniProt P30291+Q96SW2)
Construct: C-terminal ePL-tagged (DiscoverX, Fremont, CA) full-length WEE1 expression construct; expressed in transfected cells; host or cells: LentiX-HEK293T (Invitrogen), lentiviral transduction; co-expressing GSPT1-GN (G576N, lacking the first 158 amino acids)
Test: WEE1-ePL degradation assay (LentiX-WEE1-ePL-GSPT1-ND cells, InCELL Hunter luminescence, 4 h)
Type: cell-based
Conditions: 293T-LentiX WEE1-ePL cells, lower limit of the fit (Ymin=0 luciferase inhibitor, Ymax DMSO control)
measurement_type: 293T-LentiX WEE1-ePL Degradation 4 hr (Ymin)

[[record]]
compound = "O=C1CC[C@H](N2Cc3cc(O[C@H]4CCN(Cc5cc(N6CCC6)c6nc(C7CCOCC7)ccc6c5)C4)ccc3C2=O)C(=O)N1"
measured_result = 33.36

[[record]]
compound = "CC1(C)C[C@@H](c2ncc3cc(CN4CC[C@H](Oc5ccc6c(c5)CN([C@H]5CCC(=O)NC5=O)C6=O)C4)ccc3n2)CCO1"
measured_result = 26.33

[[record]]
compound = "O=C1CC[C@H](N2Cc3cc(O[C@H]4CCN(Cc5cc(F)c6nc([C@H]7CCOC7)ccc6c5)C4)ccc3C2=O)C(=O)N1"
measured_result = 34.39


What measured 293T-LentiX WEE1-ePL Degradation 4 hr (Ymin) is associated with `O=C1CC[C@H](N2Cc3cc(O[C@H]4CCN(Cc5ccc6nc(C7CCOCC7)ccc6c5Cl)C4)ccc3C2=O)C(=O)N1` on WEE1 (Homo sapiens, UniProt P30291+Q96SW2)? 28.82

And `O=C1CC[C@H](N2Cc3cc(O[C@H]4CCN(Cc5cc(C6COC6)c6nc(C7CCOCC7)ccc6c5)C4)ccc3C2=O)C(=O)N1` ? 88.43

And `O=C1CC[C@H](N2Cc3cc(O[C@@H]4CN(Cc5ccc6nc(C7CCOCC7)ncc6c5)CC4(F)F)ccc3C2=O)C(=O)N1` ? 22.61

And COC[C@H]1CCC[C@@H](c2ccc3cc(CN4CC[C@H](Oc5ccc6c(c5)CN(C5CCC(=O)NC5=O)C6=O)C4)ccc3n2)C1 (some centres unmarked) ? 26.32

And `O=C1CC[C@H](N2Cc3cc(O[C@H]4CCN(Cc5ccc6nc(N7CCOCC7)ncc6c5Cl)C4)ccc3C2=O)C(=O)N1` ? 28.46

And COC[C@@H]1CC[C@H](c2ccc3cc(CN4CC[C@H](Oc5ccc6c(c5)CN(C5CCC(=O)NC5=O)C6=O)C4)ccc3n2)C1 (some centres unmarked) ? 32.37

###

Each entry below carries its reported 293T-LentiX WEE1-ePL Degradation 4 hr (Ymin).
Biological target: WEE1 (Homo sapiens, UniProt P30291+Q96SW2)
Construct: C-terminal ePL-tagged (DiscoverX, Fremont, CA) full-length WEE1 expression construct; expressed in transfected cells; host or cells: LentiX-HEK293T (Invitrogen), lentiviral transduction; co-expressing GSPT1-GN (G576N, lacking the first 158 amino acids)
Assay: WEE1-ePL degradation assay (LentiX-WEE1-ePL-GSPT1-ND cells, InCELL Hunter luminescence, 4 h)
Assay type: cell-based
Details: 293T-LentiX WEE1-ePL cells, lower limit of the fit (0 = luciferase inhibitor, Ymax = DMSO control)
Form: value (number only, do not type unit).

Field request: 293T-LentiX WEE1-ePL Degradation 4 hr (Ymin) | item: CO[C@H]1CC[C@@H](c2ccc3cc(CN4CC[C@H](Oc5ccc6c(c5)CN(C5CCC(=O)NC5=O)C6=O)C4)ccc3n2)C1 (some centres unmarked) 28.33

And Cc1cnc2ccc(CN3CC[C@H](Oc4ccc5c(c4)CN(C4CCC(=O)NC4=O)C5=O)C3)cc2c1 (some centres unmarked) ? 38.21

###

Molecular target: WEE1 (Homo sapiens, UniProt P30291+Q96SW2)
Construct: C-terminal ePL-tagged (DiscoverX, Fremont, CA) full-length WEE1 expression construct; expressed in transfected cells; host or cells: LentiX-HEK293T (Invitrogen), lentiviral transduction; co-expressing GSPT1-GN (G576N, lacking the first 158 amino acids)
Assay: WEE1-ePL degradation assay (LentiX-WEE1-ePL-GSPT1-ND cells, InCELL Hunter luminescence, 4 h)
Type: cell-based
Conditions: 293T-LentiX WEE1-ePL cells, lower limit of the fit (0 = luciferase inhibitor, Ymax = DMSO control)
Protocol: To generate LentiX-WEE1-ePL-GSPT1-ND cells for the WEE1 degradation assay, LentiX-HEK293T (Invitrogen) were transduced by lentivirus with a C-terminal ePL-tagged (DiscoverX, Fremont, CA) full-length WEE1 expression construct. […] Cells were selected and maintained in complete DMEM media (DMEM, 10% Heat Inactivated FBS, 400 μg/mL Geneticin, and 1 μg/mL puromycin at 37 C and 5% CO2). Cells were passaged every 3-4 days by reseeding 1×10^6 cells in a T150 flask. […]
measurement_type: 293T-LentiX WEE1-ePL Degradation 4 hr (Ymin)
Form: value (number only, do not type unit).

[[record]]
compound = "O=C1CCC(N2Cc3cc(O[C@H]4CCN(Cc5cncc(C(F)(F)F)c5)C4)ccc3C2=O)C(=O)N1 (some centres unmarked)"
measured_result = 33.76

[[record]]
compound = "Cc1cc(Cl)c2cc(CN3CC[C@H](Oc4ccc5c(c4)CN(C4CCC(=O)NC4=O)C5=O)C3)ccc2n1 (some centres unmarked)"
measured_result = 32.06

[[record]]
compound = "Cc1nc2ccccc2cc1CN1CC[C@H](Oc2ccc3c(c2)C(=O)N(C2CCC(=O)NC2=O)C3)C1 (some centres unmarked)"
measured_result = 87.055

[[record]]
compound = "O=C1CCC(N2Cc3cc(O[C@H]4CCN(Cc5ccc6nc(N7CCCC7)ccc6c5)C4)ccc3C2=O)C(=O)N1 (some centres unmarked)"
measured_result = 34

[[record]]
compound = "O=C1CCC(N2Cc3cc(O[C@H]4CCN(Cc5ccc6nc(N7CC8(CCOCC8)C7)ncc6c5)C4)ccc3C2=O)C(=O)N1 (some centres unmarked)"
measured_result = 35

[[record]]
compound = "O=C1CCC(N2Cc3cc(O[C@H]4CCN(Cc5ccc6nc(N7CCCC78CCOCC8)ncc6c5)C4)ccc3C2=O)C(=O)N1 (some centres unmarked)"
measured_result = 47

[[record]]
compound = "O=C1CCC(N2Cc3cc(O[C@H]4CCN(Cc5cnc6c(c5)CCCO6)C4)ccc3C2=O)C(=O)N1 (some centres unmarked)"
measured_result = 33.245


Field request: 293T-LentiX WEE1-ePL Degradation 4 hr (Ymin) | item: COCc1ncc2cc(CN3CC[C@H](Oc4ccc5c(c4)CN(C4CCC(=O)NC4=O)C5=O)C3)ccc2n1 (some centres unmarked) 32
